Measured IC50 (Vascular endothelial growth factor receptor 2 (Homo sapiens))

CN1CCN(c2ccc(C(=O)Nc3cc(-c4ccc(NS(=O)(=O)c5ccccc5)cc4)n[nH]3)cc2)CC1
> 1000 nM
Cc1nc(Nc2cc(-c3ccc(CNC(=O)OCc4cc(C)on4)cc3)n[nH]2)cc(N2CCN(C)CC2)n1
> 1000 nM

Input line: Provide IC50, recorded with Vascular endothelial growth factor receptor 2 (Homo sapiens), of Cc1nc(Nc2cc(-c3ccc(CNC(=O)OCc4cccnc4)cc3)n[nH]2)cc(N2CCN(C)CC2)n1
Sequence (P35968 whole entry): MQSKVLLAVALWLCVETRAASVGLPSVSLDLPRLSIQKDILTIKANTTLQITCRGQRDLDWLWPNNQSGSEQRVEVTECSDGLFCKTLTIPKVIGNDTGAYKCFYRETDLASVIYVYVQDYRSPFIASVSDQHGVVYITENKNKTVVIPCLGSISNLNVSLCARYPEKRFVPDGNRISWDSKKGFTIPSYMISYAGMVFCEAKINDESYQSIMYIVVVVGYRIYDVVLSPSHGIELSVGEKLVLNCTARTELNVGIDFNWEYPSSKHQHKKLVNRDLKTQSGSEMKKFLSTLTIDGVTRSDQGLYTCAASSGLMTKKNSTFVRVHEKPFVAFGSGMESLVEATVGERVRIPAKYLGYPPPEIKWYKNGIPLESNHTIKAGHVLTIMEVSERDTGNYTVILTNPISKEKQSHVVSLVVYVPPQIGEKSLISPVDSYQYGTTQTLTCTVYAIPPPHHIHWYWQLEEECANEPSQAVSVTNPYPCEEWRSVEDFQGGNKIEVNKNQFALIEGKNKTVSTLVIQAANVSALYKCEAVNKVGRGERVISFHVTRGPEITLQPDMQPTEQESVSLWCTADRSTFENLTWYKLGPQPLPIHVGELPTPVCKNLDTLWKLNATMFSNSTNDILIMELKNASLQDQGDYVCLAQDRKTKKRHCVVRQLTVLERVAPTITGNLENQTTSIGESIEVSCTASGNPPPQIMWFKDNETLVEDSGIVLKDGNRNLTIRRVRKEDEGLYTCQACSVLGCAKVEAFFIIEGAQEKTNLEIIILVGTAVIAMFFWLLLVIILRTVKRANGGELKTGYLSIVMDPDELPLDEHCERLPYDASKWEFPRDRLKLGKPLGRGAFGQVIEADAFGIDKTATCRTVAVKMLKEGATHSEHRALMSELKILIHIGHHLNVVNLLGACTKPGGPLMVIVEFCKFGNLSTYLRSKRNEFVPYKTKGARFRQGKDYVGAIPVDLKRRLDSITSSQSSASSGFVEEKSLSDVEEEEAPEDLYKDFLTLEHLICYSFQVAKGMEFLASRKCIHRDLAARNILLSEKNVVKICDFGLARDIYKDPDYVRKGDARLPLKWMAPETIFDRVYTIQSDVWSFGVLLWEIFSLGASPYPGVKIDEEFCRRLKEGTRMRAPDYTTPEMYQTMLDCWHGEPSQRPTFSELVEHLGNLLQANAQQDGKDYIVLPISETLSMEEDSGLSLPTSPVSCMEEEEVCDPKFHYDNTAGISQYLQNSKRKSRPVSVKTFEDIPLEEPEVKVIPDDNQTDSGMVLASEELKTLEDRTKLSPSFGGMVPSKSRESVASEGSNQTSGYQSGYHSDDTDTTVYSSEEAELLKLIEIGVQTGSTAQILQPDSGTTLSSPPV
Output line: > 1000 nM
